Value source: patent US20100260765A1

Known ELISA reading of a selection of binders
molecular target: T1, mouse KDR (Flk-1)/Fc (Cat. #443-KD/CF, R&D Systems, Inc.) (mouse, UniProt P35918 20-762); experiment: ELISA, Flk-1 coat 5 ug/mL, antibody 0.01 ug/mL
T1 construct: Bought reagent; also called mouse VEGFR2; KDR mouse ortholog; not shown: Fc of the bought fusion protein
T1 sequence (P35918 20-762 limits assumed): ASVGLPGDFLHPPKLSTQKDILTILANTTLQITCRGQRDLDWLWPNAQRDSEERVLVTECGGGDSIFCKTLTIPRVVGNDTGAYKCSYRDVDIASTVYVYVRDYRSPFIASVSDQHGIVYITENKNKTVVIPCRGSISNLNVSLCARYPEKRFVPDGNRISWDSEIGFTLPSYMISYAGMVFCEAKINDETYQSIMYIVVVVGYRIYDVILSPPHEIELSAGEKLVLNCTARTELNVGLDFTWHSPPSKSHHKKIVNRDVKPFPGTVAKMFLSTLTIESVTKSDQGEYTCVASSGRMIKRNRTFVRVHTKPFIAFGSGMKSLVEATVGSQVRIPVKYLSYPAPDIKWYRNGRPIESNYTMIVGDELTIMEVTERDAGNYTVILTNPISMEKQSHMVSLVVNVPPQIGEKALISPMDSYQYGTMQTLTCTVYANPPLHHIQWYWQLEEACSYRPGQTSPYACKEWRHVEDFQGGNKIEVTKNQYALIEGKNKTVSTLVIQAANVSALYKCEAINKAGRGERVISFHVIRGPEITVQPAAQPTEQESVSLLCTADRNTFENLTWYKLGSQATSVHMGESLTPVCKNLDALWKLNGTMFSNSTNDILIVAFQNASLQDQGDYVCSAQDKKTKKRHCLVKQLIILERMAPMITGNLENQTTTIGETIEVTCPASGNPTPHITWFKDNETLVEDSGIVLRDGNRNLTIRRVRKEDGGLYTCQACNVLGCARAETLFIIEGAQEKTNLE
Measured metric: ELISA reading

binder="31E11 (antibody, V domains shown, Fully human monoclonal antibody from a XenoMouse hybridoma (IgG2 or IgG4 strain), purified) VH: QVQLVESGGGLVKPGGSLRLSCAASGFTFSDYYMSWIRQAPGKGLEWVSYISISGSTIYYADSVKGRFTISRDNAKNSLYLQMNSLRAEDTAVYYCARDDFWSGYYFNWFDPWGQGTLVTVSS VL: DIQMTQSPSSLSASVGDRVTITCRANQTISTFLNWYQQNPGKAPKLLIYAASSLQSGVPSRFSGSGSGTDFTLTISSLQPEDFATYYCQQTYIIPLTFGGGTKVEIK" measured_metric="ELISA reading" recorded_result=0.826
binder="24B3 (antibody, V domains shown, Fully human monoclonal antibody from a XenoMouse hybridoma (IgG2 or IgG4 strain), purified) VH: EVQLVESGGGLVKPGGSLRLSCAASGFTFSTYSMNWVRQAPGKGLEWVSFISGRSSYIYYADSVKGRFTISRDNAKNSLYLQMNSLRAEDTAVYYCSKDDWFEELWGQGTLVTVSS VL: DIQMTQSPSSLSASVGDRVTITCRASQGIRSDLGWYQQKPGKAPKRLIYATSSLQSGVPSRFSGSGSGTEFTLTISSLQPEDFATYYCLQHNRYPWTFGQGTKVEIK" measured_metric="ELISA reading" recorded_result=1.58
binder="33B1 (antibody, V domains shown, Fully human monoclonal antibody from a XenoMouse hybridoma (IgG2 or IgG4 strain), purified) VH: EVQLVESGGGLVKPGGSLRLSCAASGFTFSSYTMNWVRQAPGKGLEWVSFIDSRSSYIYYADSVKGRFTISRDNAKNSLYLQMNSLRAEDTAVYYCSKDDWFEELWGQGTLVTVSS VL: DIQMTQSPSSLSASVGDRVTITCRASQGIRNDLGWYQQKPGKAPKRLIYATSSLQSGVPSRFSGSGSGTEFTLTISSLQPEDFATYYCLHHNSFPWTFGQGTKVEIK" measured_metric="ELISA reading" recorded_result=0.753
binder="33E1 (antibody, V domains shown, Fully human monoclonal antibody from a XenoMouse hybridoma (IgG2 or IgG4 strain), purified) VH: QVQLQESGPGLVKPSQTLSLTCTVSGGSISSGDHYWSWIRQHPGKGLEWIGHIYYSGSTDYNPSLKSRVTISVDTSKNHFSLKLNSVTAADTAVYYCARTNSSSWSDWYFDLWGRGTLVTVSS VL: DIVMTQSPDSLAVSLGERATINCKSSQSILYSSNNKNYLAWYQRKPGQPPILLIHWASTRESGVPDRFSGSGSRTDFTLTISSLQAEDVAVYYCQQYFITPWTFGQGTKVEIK" measured_metric="ELISA reading" recorded_result=0.846
binder="33C3 (antibody, V domains shown, Fully human monoclonal antibody from a XenoMouse hybridoma (IgG2 or IgG4 strain), purified) VH: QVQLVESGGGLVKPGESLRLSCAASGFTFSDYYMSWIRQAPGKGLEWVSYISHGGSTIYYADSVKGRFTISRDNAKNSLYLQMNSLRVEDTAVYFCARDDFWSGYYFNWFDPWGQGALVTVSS VL: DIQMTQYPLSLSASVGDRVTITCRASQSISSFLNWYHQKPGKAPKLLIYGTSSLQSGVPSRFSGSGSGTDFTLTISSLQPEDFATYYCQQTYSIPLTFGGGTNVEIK" measured_metric="ELISA reading" recorded_result=1.25
